Form: system (UniProt:P33261), quantity (IC50), values below.
Sequence (P33261 whole entry): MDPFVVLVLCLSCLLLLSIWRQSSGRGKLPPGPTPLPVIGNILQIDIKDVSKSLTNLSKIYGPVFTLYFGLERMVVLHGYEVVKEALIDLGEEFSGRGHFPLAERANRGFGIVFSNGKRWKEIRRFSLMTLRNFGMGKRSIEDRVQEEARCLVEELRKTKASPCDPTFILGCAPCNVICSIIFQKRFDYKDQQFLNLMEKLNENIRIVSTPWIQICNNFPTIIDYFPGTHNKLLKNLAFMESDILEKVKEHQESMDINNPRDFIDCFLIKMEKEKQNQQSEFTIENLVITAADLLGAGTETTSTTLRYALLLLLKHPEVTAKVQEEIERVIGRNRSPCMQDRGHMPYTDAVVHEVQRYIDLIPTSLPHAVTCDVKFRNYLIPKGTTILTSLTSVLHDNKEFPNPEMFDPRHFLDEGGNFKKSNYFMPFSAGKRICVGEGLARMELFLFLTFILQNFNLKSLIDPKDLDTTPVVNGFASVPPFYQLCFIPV
QUANTITY_MEASURED: IC50 (nM)

COMPOUND: CCn1c([C@@H](C)NS(=O)(=O)c2ccc(C#N)nc2)nc2cnc(C(F)(F)F)cc21
TGT: UniProt:P33261
RELATION_SIGN: >
REPORTED_MEASUREMENT: 20000

COMPOUND: CCn1c([C@@H](C)NS(=O)(=O)c2ccncc2)nc2ccc(C(F)(F)F)cc21
TGT: UniProt:P33261
RELATION_SIGN: =
REPORTED_MEASUREMENT: 40

COMPOUND: CCn1c(C(C)NS(=O)(=O)c2ccc(Cl)cc2)nc2cnccc21 (stereo not drawn)
TGT: UniProt:P33261
RELATION_SIGN: =
REPORTED_MEASUREMENT: 910
